# protocol-details: solvent given as SMILES
# conditions: in ClCCl
readout: absorption maximum (nm)
Give the value in nm but do not write nm after it.

Illustrative cases are given below, each with its answer.
compound-structure-string: COc1ccc(-c2c3ccccc3c(-c3ccc(OC)cc3)c3cc4ccccc4cc23)cc1
readout: absorption maximum
recorded-result: 495
//
compound-structure-string: CC(C)(C)C#Cc1cc2c(C#CC(C)(C)C)c(C#CC(C)(C)C)c3cc(C#CC(C)(C)C)cc4c(C#CC(C)(C)C)c(C#CC(C)(C)C)c(c1)c2c34
readout: absorption maximum
recorded-result: 383

According to the records, this compound CCCCCCN1C(=O)c2cccc3c(-c4ccc(-c5cc(-c6ccc(Cl)cc6)n(-c6ccccc6)n5)s4)ccc(c23)C1=O displays absorption maximum of 402

According to the records, this compound COc1ccc2cc(/C=C/C3=C4CCc5ccccc5C4=[O+][B-](F)(F)O3)ccc2c1 displays absorption maximum of 479

According to the records, this compound CC(=O)O[B-]1(OC(C)=O)OC(/C=C/c2ccc(C)cc2)=CC(/C=C/c2ccc(C)cc2)=[O+]1 displays absorption maximum of 440

According to the records, this compound N#CC(C#N)=Cc1cn(-c2ccccc2)nc1-c1ccccc1 displays absorption maximum of 357

* * *

# protocol-details: solvent given as SMILES
# conditions: in ClCCl
Rule: absorption maximum below 400 nm gives rule met, anything at or above gives rule not met.

Here are 5 molecules together with their reported answers.
compound-structure-string: N#Cc1ccc2c(c1)CCc1nc(-c3ccc([N+](=O)[O-])cc3)c3c(c1-2)CCc1cc(C#N)ccc1-3
category: rule met
--
compound-structure-string: C[Si]1(C)O[Si](C)(C)c2cc3nc4ccc(Cl)cc4c(-c4ccccc4)c3cc2[Si](C)(C)O1
category: rule met
--
compound-structure-string: O=C1C(=c2c(=O)c3c4ccccc4cc4cc5ccccc5c2c43)C(=O)c2ccccc21
category: rule not met
--
compound-structure-string: COc1ccc2cc(/C=C/C3=[O+][B-](F)(F)OC(/C=C/c4ccc5cc(OC)ccc5c4)=C3c3ccccc3)ccc2c1
category: rule not met
--
compound-structure-string: COc1ccc(N(c2ccc(OC)cc2)c2cc(N(c3ccc(OC)cc3)c3ccc(OC)cc3)c3ccc4cc(C(C)(C)C)cc5ccc2c3c54)cc1
category: rule not met

Determine if COC(=O)c1nc2c(N(C)C)nc(N(C)C)nc2n1Cc1ccccc1 shows absorption maximum strictly lower than 400 nm.
rule met

Determine if N#CC(C#N)=Cc1ccc(-c2ccc(O)c(-c3nc4ccccc4s3)c2)s1 shows absorption maximum strictly lower than 400 nm.
rule not met

Determine if COc1c(C(C)=O)c(=O)oc2cc(N(C)C)ccc12 shows absorption maximum strictly lower than 400 nm.
rule met

Determine if CN(C)c1ccc(/C=C/c2cccnn2)cc1 shows absorption maximum strictly lower than 400 nm.
rule met

Determine if N#C/C(=C\c1ccncc1)c1nc(-c2ccccc2)cs1 shows absorption maximum strictly lower than 400 nm.
rule not met

Determine if CN(C)c1ccc(C#Cc2cc(C#Cc3ccc(N(C)C)cc3)c3ccc4c(C#Cc5ccc(N(C)C)cc5)cc(C#Cc5ccc(N(C)C)cc5)c5ccc2c3c54)cc1 shows absorption maximum strictly lower than 400 nm.
rule not met

Determine if F[B-]1(F)OC(c2ccccc2)=Cc2cc(Cl)nc[n+]21 shows absorption maximum strictly lower than 400 nm.
rule met

Determine if F[B-]1(F)n2c(Cl)c(Cl)c(Br)c2C(Oc2ccccc2)=C2C(Br)=C(Cl)C(Cl)=[N+]21 shows absorption maximum strictly lower than 400 nm.
rule not met

Determine if CCCCN(CCCC)c1ccc(/C=C/c2ccc3nc(/C=C/c4nc5ccc(/C=C/c6ccc(N(CCCC)CCCC)cc6)cc5n(CCC)c4=O)c(=O)n(CCC)c3c2)cc1 shows absorption maximum strictly lower than 400 nm.
rule not met

Determine if COc1ccc(-c2ccc(/C=C/c3cnc4ccccc4n3)cc2)cc1 shows absorption maximum strictly lower than 400 nm.
rule met

Determine if N#Cc1cc(/C=C/c2ccc(N(c3ccccc3)c3ccccc3)cc2)ccc1-c1ccc(/C=C/c2ccc(N(c3ccccc3)c3ccccc3)cc2)cc1C#N shows absorption maximum strictly lower than 400 nm.
rule met

Determine if CCOC(=O)c1c(-c2cc3ccccc3oc2=O)nn(-c2ccccc2)c1C(=O)OCC shows absorption maximum strictly lower than 400 nm.
rule met

Determine if CN(C)c1ccc(C2=Nc3sc4ccccc4[n+]3[B-](F)(F)O2)cc1 shows absorption maximum strictly lower than 400 nm.
rule not met

Determine if CCc1c(C)[nH]c(C2=[N+]3C(=Cc4c(C)c(CC)c(C)n4[B-]3(F)F)c3ccccc32)c1C shows absorption maximum strictly lower than 400 nm.
rule not met
